System: Vero E6 infected with SARS-CoV-2
assay protocol: SARS-CoV-2 infection rate relative to infected DMSO; higher = more infection, active = 60 or less
measurement context: 24 h
assay endpoint: SARS-CoV-2 infection rate (%)
Entry rule: numbers only, all in %.

The examples below pair each entry with its known result.
COc1cc(OC)cc(C(=O)NNC(=O)Nc2cccc3ccccc23)c1 (10 µM); 105
O=P(O)(O)C(O)(Cn1ccnc1)P(=O)(O)O [zoledronic-acid] (10 µM); 116
C[C@@H]1C[C@H]2[C@@H]3CCC4=CC(=O)C=C[C@]4(C)[C@@]3(Cl)[C@@H](O)C[C@]2(C)[C@@]1(OC(=O)c1ccco1)C(=O)CCl (10 µM); 78

Could you now consider this next compound?
Sure, the documented SARS-CoV-2 infection rate for O=c1[nH]c(=O)n([C@H]2C[C@H](O)[C@@H](CO)O2)cc1Br [broxuridine] (0.833333 µM) is 108

====

Test system: Vero E6 infected with SARS-CoV-2
assay protocol: SARS-CoV-2 infection rate relative to infected DMSO; higher = more infection, active = 60 or less
measurement context: 24 h
The reply should be one of these categories: active, inactive

Record excerpt, results attached:
CCCN(C/C=C/I)C1CCc2cccc(O)c2C1 (stereo not given) [8-hydroxy-PIPAT] (10 µM); inactive
c1ccc2c(Cc3c[nH]c4ccccc34)c[nH]c2c1 [3,3'-diindolylmethane] (10 µM); inactive
C[C@@H]1CN(CCCn2c3ccccc3c3ccccc32)C[C@H](C)N1 [rimcazole] (10 µM); active
C[C@H](NC(=O)c1sccc1OCc1ccc(Cl)cc1)c1ccccc1 (10 µM); inactive

Pending molecule:
In this assay, the call recorded for CC(C)(C)c1[nH]cnc1/C=c1\[nH]c(=O)/c(=C/c2ccccc2)[nH]c1=O [plinabulin] (0.833333 µM) was what?
inactive

====

Each entry below carries its reported morphology score.
System: Vero E6 infected with SARS-CoV-2
assay protocol: morphology score (similarity to uninfected cells); higher = more like uninfected cells
measurement context: 24 h
A bare number is all that is needed in reply.

The examples below pair each entry with its known result.
COc1ccc(NS(=O)(=O)c2ccc(/N=N/c3ccc(O)c(C(=O)O)c3)cc2)nn1 [salazodine] (10 µM); 0.0596
Cc1ccnc(NS(=O)(=O)c2ccc(N)cc2)n1 [sulfamerazine] (10 µM); 0.0324

Could you now consider this next molecule?
Sure, the documented morphology score for COc1cc(C(=O)N2CCC(N3CCN(C)CC3)CC2)ccc1Nc1ncc2c(n1)N(C)c1ccccc1C(=O)N2C (0.833333 µM) is 0.0522

====

Each entry below carries its reported inhibition of SARS-CoV-2 cytopathic effect.
Tested on: Vero E6 infected with SARS-CoV-2
assay protocol: inhibition of SARS-CoV-2 cytopathic effect; higher = more antiviral protection, active = above 15
measurement context: 1 nM; 48 h
Entry rule: numbers only, all in %.

Cc1nc2c([nH]1)-c1ccccc1N(C(=O)c1ccc(NC(=O)c3ccccc3-c3ccccc3)cc1)CC2 [conivaptan]; 3.24
O=C(O)C(=O)Nc1cccc(-c2nnn[nH]2)c1 [acitazanolast]; -1.24
CCn1c(-c2nonc2N)nc2cncc(CNC3CCNCC3)c21; 0.63

Sure, the documented inhibition of SARS-CoV-2 cytopathic effect for C[n+]1ccccc1C=NO [pralidoxime] is 1.86

Sure, the documented inhibition of SARS-CoV-2 cytopathic effect for C=CCN1CC[C@]23c4c5ccc(O)c4O[C@H]2/C(=N/NC(=O)c2ccccc2)CC[C@@]3(O)[C@H]1C5 [naloxone-benzoylhydrazone] is -0.04

====

Test system: Vero E6 infected with SARS-CoV-2
assay protocol: inhibition of SARS-CoV-2 cytopathic effect; higher = more antiviral protection, active = above 15
measurement context: 8.33 nM; 48 h
assay endpoint: inhibition of SARS-CoV-2 cytopathic effect (%)
Entry rule: numbers only, all in %.

CCc1cc2c(cc1N1CCC(N3CCOCC3)CC1)C(C)(C)c1[nH]c3cc(C#N)ccc3c1C2=O; 1.4
NCCCC[C@H](NC(=O)[C@@H](Cc1cc(Br)c(O)c(Br)c1)NC(=O)N1CCC(N2Cc3ccccc3NC2=O)CC1)C(=O)N1CCN(c2ccncc2)CC1; 0.87
CCCNC(C)C(=O)Nc1ccccc1C (stereo not drawn); -1.58

Could you now consider this next compound?
Sure, the documented inhibition of SARS-CoV-2 cytopathic effect for C=CC[C@]1(O)CC[C@H]2[C@@H]3CCC4=CCCC[C@@H]4[C@H]3CC[C@@]21C is -2.16

====

Each entry below carries its reported SARS-CoV-2 infection rate.
Test system: Vero E6 infected with SARS-CoV-2
assay protocol: SARS-CoV-2 infection rate relative to infected DMSO; higher = more infection, active = 60 or less
measurement context: 24 h

The examples below pair each entry with its known result.
C[N+](C)(C)CCCCCNCC12CC3CC(CC(C3)C1)C2 (10 µM); 112% (inactive)
CN(C)c1nc(N)c(C(=O)Nc2cccnc2)nc1Cl (10 µM); 79% (inactive)
N=C1CCCN1Cc1[nH]c(=O)[nH]c(=O)c1Cl [tipiracil] (10 µM); 106% (inactive)

Sure, the documented SARS-CoV-2 infection rate for CCOC(=O)N1CSC[C@H]1C(=O)O [telmesteine] (10 µM) is 99.5% (inactive)

Sure, the documented SARS-CoV-2 infection rate for CN1C2CCCC1CC(NC(=O)c1nn(C)c3ccccc13)C2 (configuration not stated) [granisetron] (10 µM) is 98.5% (inactive)

Sure, the documented SARS-CoV-2 infection rate for Nc1ccccc1NC(=O)c1ccc(CNc2nccc(-c3cccnc3)n2)cc1 [mocetinostat] (0.833333 µM) is 104% (inactive)

Sure, the documented SARS-CoV-2 infection rate for COc1ccc2c(c1OC)C(=O)O[C@@H]2[C@H]1c2c(cc3c(c2OC)OCO3)CCN1C [noscapine] (10 µM) is 104% (inactive)

Sure, the documented SARS-CoV-2 infection rate for Cc1cc(C(N)=O)ccc1-n1c(CCC(=O)O)ccc1-c1ccc(-n2ccnc2)cc1 (10 µM) is 89% (inactive)

Sure, the documented SARS-CoV-2 infection rate for C[C@]12CCC(=O)C=C1CC[C@@H]1[C@@H]2[C@@H](O)C[C@@]2(C)[C@H]1CC[C@]2(O)C(=O)COC(=O)CCC(=O)O [hydrocortisone-hemisuccinate] (10 µM) is 116% (inactive)

Sure, the documented SARS-CoV-2 infection rate for CO[C@@]1(NC(=O)Cc2cccs2)C(=O)N2C(C(=O)O)=C(COC(N)=O)CS[C@@H]21 [cefoxitin] (10 µM) is 100% (inactive)

Sure, the documented SARS-CoV-2 infection rate for N#Cc1ccc(-c2csc(NN=C3CCCC3)n2)cc1 [remodelin] (10 µM) is 100% (inactive)

Sure, the documented SARS-CoV-2 infection rate for N=C(N)NC(=N)NCCc1ccccc1 [phenformin] (10 µM) is 110% (inactive)

====

Each entry below carries its reported inhibition of SARS-CoV-2 cytopathic effect.
System: Vero E6 infected with SARS-CoV-2
assay protocol: inhibition of SARS-CoV-2 cytopathic effect; higher = more antiviral protection, active = above 15
measurement context: 100 nM; 48 h
Entry rule: numbers only, all in %.

The examples below pair each entry with its known result.
CCNC(C)CN1CCc2c(c(=O)oc3ccccc23)C1 (configuration not stated); -0.83
CS(=O)(=O)c1cc(F)cc2c3c(n(Cc4ccc(Cl)cc4)c12)[C@@H](CC(=O)O)CC3 [laropiprant]; -0.36
COc1ccc(COc2cc3oc(=O)c4cc(C(C)O)ccc4c3cc2OC)cc1 (configuration not stated) [palomid-529]; 0.02
C[C@]12CCC(=O)C=C1[C@@H]1C[C@@H]1[C@H]1[C@@H]3[C@@H]4C[C@@H]4[C@@]4(CCC(=O)O4)[C@@]3(C)CC[C@@H]12 [drospirenone]; -3.16
CCO[C@H]1O[C@@H]2O[C@@]3(C)CC[C@H]4[C@H](C)CC[C@@H]([C@H]1C)[C@@]24OO3 [artemotil]; 1.56
CCCCCCCC/C=C/CCCCCCCC(=O)OC[C@H]1O[C@@H](n2ccc(N)nc2=O)C(F)(F)[C@@H]1O [gemcitabine-elaidate]; -1.9
COc1cc(OC)c(NC(=O)Nc2cc(C)on2)cc1Cl; 1.57
COCCc1ccc(OCC(O)CNC(C)C)cc1 (configuration not stated) [metoprolol]; -0.12
C[C@]12CCC(=O)C=C1CC[C@@H]1[C@@H]2[C@@H](O)C[C@@]2(C)[C@H]1CC[C@]2(O)C(=O)COC(=O)CCC(=O)O [hydrocortisone-hemisuccinate]; -5.26
O=C(O)CCCN1CCC(O[C@@H](c2ccc(Cl)cc2)c2ccccn2)CC1 [bepotastine]; 0.31

GET /values?item= O=C(Nc1ccc(-c2ccncc2)cc1)N[C@H](CO)c1ccccc1 &system= Vero E6 infected with SARS-CoV-2 returns inhibition of SARS-CoV-2 cytopathic effect: -1.14

GET /values?item= CC(=O)[O-].CC(=O)[O-].N.NC1CCCCC1.[Cl-].[Cl-].[Pt+4] [satraplatin] &system= Vero E6 infected with SARS-CoV-2 returns inhibition of SARS-CoV-2 cytopathic effect: 2.26
